measured_on: bovine serum albumin (BSA) (Bos taurus, UniProt P02769)
Sequence (P02769 25-607): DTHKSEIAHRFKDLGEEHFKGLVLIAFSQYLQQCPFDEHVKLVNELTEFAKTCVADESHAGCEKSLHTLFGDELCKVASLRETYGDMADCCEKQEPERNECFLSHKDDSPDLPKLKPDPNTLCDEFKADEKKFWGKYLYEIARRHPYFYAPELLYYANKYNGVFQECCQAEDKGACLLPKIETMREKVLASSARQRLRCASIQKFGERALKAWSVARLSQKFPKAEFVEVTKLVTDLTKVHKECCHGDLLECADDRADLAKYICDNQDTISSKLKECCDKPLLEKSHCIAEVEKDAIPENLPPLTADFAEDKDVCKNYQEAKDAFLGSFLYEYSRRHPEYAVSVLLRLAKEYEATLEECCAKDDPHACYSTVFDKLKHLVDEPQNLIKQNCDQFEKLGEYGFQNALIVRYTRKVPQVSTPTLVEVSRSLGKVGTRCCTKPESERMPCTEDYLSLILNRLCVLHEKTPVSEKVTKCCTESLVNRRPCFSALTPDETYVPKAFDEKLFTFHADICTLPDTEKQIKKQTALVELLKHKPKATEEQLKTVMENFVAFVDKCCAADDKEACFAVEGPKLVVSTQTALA
conditions_used: Ka (ω, terminal −CF3 position), BSA, 310 K, pH 7.4 PBS, Ka=Kd^−1
quantity_name: Kd (µM)
Unit µM implied. Number only.

Q. // lookup Kd | system=bovine serum albumin (BSA) (Bos taurus, UniProt P02769) | key= O=C(O)C(F)(F)C(F)(F)C(F)(F)C(F)(F)C(F)(F)C(F)(F)C(F)(F)F [PFOA, perfluorooctanoic acid]
A. 6.45
